Target: human mGluR7 (Homo sapiens, UniProt Q14831)
Sequence (Q14831 35-915): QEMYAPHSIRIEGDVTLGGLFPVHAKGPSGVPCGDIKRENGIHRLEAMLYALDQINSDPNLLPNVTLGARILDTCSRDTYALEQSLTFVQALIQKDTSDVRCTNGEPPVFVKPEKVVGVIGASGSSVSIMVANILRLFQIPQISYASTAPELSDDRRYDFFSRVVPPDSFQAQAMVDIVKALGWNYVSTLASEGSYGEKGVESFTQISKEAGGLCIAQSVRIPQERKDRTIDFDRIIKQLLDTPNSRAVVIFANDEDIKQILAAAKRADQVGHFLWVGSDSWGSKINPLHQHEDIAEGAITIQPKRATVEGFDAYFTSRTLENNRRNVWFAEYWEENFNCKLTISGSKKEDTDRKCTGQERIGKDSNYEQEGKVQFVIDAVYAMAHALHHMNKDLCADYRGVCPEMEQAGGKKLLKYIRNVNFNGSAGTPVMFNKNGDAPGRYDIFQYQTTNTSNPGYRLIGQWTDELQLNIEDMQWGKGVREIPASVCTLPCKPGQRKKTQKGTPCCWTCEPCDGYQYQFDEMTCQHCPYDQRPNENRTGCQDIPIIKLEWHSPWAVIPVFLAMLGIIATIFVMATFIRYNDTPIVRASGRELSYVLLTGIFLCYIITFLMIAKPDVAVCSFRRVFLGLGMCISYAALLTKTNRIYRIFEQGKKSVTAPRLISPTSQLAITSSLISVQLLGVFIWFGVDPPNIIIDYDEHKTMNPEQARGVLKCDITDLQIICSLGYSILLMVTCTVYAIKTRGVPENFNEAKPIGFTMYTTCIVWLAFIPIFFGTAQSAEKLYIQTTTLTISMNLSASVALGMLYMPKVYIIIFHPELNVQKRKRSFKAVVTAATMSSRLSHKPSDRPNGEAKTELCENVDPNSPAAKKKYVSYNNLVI
Test: mGluR7 assay: CRE-directed luciferase reporter gene assay, reduction of forskolin stimulated cAMP production
Details: stable CHO cell line expressing the CRE-luc reporter and human mGluR7 genes; decrease of forskolin stimulated luminescence; 10-point concentration-response, duplicate wells
quantity measured: EC50 (nM)

Please review the entries below; each comes with its answer.
N[C@H]1c2ccccc2C[C@@H]1NC(=O)C(c1ccc(F)cc1F)N1CC(OC(F)F)C1 (stereo partly drawn) [Example 119] = 63
COC1CN(C(C(=O)N[C@H]2Cc3ccccc3[C@@H]2NC(=O)OC(C)(C)C)c2ccc(F)cc2F)C1 (stereo partly drawn) [Example 104] = 12
COC1c2ccccc2CC1NC(=O)[C@@H](NC(=O)C1CC1)c1ccc(F)cc1 (single isomer, unassigned) [Example 102] = 6

a: COC1c2ccccc2CC1NC(=O)[C@@H](NCC1CC1)c1ccc(F)cc1 (single isomer, unassigned) [Example 55]
b: COC1c2ccccc2CC1NC(=O)C(c1ccc(F)cc1)n1ncccc1=O (single isomer, unassigned) [Example 128]
c: COC1c2ccccc2CC1NC(=O)[C@@H](C)c1ccccc1 (single isomer, unassigned) [Example 8]
d: C[C@H](C(=O)N[C@@H]1Cc2ccccc2[C@H]1S(C)(=O)=O)c1ccc(F)cc1 [Example 113]
e: N[C@H]1c2ccccc2C[C@@H]1NC(=O)C1(c2ccccc2)CNC(=O)C1 (stereo partly drawn) [Example 122]
Q: Order the entries by their reported EC50, beginning at the minimum. Give me the labels in the order the question wants.
A: a, d, c, e, b
(a: 1 nM, d: 38 nM, c: 57 nM, e: 485 nM, b: 1320 nM)

----------
Target: human mGluR7 (Homo sapiens, UniProt Q14831)
Assay: mGluR7 assay: CRE-directed luciferase reporter gene assay, reduction of forskolin stimulated cAMP production
Conditions: stable CHO cell line expressing the CRE-luc reporter and human mGluR7 genes; decrease of forskolin stimulated luminescence; 10-point concentration-response, duplicate wells
pEC50: −log10 of the molar value. Counter-ions that a name gives are not always drawn.
quantity measured: pEC50

CC(C)(C)OC(=O)N[C@H]1c2ccccc2C[C@@H]1NC(=O)C(C)(C)c1ccc(F)cc1 = 6.24

A: CS(=O)(=O)C1c2ccccc2CC1NC(=O)C(OCC1CC1)c1ccccc1 (single isomer, unassigned) [Example 148]
B: CCC(C(=O)N[C@@H]1Cc2ccccc2[C@H]1NC(=O)OC(C)(C)C)c1ccc(F)cc1F (stereo partly drawn)
Q: Parameter check: reported pEC50 is higher for which label, A or B ? Write the label of whichever entry you select.
A: A
(A: 7.80, B: 6.67)

a: CO[C@H](C(=O)NC1Cc2ccccc2C1S(C)(=O)=O)c1ccccc1 (single isomer, unassigned) [Example 159]
b: C[C@H](C(=O)NC1Cc2ccccc2C1O)c1ccccc1 (mixture of isomers) [Example 2]
c: N[C@H]1c2ccccc2C[C@@H]1NC(=O)C(c1ccc(F)cc1F)N1CC(F)(F)C1 (stereo partly drawn) [Example 103, formate]
d: COC1c2ccccc2CC1NC(=O)C(c1ccc(F)cc1F)N1CC(F)C1 (single isomer, unassigned) [Example 139]
Q: Order the entries by their reported pEC50, beginning at the minimum. Give me the labels in the order the question wants.
A: c, b, d, a
(c: 6.66, b: 6.97, d: 7.21, a: 7.60)
